Recorded values, source patent US20260242478A1.

# targetUnderTest: T1, 006 PSMA Fab (biotinylated (site not stated))
# T1 construct: also called Anti-PSMA Fab
# protocolDetails: clonal phage ELISA on biotinylated PSMA Fab captured on neutravidin, anti-M13-HRP detection;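 also: crude clonal phage supernatants added to wells preincubated with PSMA antigen in blocking buffer or with blocking buffer alone, brief binding period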
Where no end group is shown, it is not given here.
assayMetric: Phage binding ELISA signal, Anti-PSMA Fab

- ELILCQPRWMCEGF (Peptide-180 library clone, tested as clonal phage (peptide fused to pIII)) [Phage-2942]: 2.28
- IHPVCKPDWMCAGF (cysteine pairing not given here; also: peptide fused to pIII, Peptide-180 library clone, tested as clonal phage (peptide fused to pIII)) [Phage-2935]: 2.29
- LTPMCKPSWMCDGF (Peptide-180 library clone, tested as clonal phage (peptide fused to pIII)) [Phage-2944]: 2.28
- EFNWCRPLWMCVGF (cysteine pairing not given here; also: peptide displayed as fusion to phage pIII, Peptide-180 library clone, tested as clonal phage (peptide fused to pIII of the bacteriophage)) [Phage-2934]: 2.29
- GDHLCRPSWMCVGF (Peptide-180 library clone, tested as clonal phage (peptide fused to pIII)) [Phage-2947]: 2.28
- TVIKCIPAWMCDGF (Peptide-180 library clone, tested as clonal phage (peptide fused to pIII)) [Phage-2945]: 2.28
